For each record, write down the corresponding MTD at 672 h.
# method: Toxicity in po dosed BALB/c nu/nu mouse xenografted with human DMS53 cells measured for 28 days
# Type: organism-based, DMS-53
# condition: in vivo
Numbers only, in mg/kg.

- chemical_smiles: "CN(C(=S)NN=C(c1ccccn1)c1ccccn1)C1CCCCC1.Cl"
  quantity_unit: "mg/kg"
  MTD at 672 h: 20

Please turn your attention to the following entry.
Q: Given the molecule "CCN(C)C(=S)NN=C(c1ccccn1)c1ccccn1.Cl" , what is its reported MTD at 672 h?
Result: 10

* * *

# Test system: A549
# method: Antiproliferative activity at human A549 cells after 72 hrs by MTT assay
# Type: functional, cell-based
# condition: a549
What IC50 was measured for each of the following?

- chemical_smiles: "CCN(C)C(=S)NN=C(c1ccccn1)c1ccccn1.Cl"
  assay_endpoint: "IC50"
  result: "1 nM"

Now examine the next entry.
Q: So what's the measured IC50 for this one? "CCN(C)C(=S)NN=C(c1ccccn1)c1ccccn1"
Result: 10 nM
